// data source = patent US11891365B2

In this section, each of the compounds is paired with its reported IC50.
Biological target: Full length human recombinant HDAC6 protein (Homo sapiens, UniProt Q9UBN7)
Sequence (Q9UBN7 1-1215): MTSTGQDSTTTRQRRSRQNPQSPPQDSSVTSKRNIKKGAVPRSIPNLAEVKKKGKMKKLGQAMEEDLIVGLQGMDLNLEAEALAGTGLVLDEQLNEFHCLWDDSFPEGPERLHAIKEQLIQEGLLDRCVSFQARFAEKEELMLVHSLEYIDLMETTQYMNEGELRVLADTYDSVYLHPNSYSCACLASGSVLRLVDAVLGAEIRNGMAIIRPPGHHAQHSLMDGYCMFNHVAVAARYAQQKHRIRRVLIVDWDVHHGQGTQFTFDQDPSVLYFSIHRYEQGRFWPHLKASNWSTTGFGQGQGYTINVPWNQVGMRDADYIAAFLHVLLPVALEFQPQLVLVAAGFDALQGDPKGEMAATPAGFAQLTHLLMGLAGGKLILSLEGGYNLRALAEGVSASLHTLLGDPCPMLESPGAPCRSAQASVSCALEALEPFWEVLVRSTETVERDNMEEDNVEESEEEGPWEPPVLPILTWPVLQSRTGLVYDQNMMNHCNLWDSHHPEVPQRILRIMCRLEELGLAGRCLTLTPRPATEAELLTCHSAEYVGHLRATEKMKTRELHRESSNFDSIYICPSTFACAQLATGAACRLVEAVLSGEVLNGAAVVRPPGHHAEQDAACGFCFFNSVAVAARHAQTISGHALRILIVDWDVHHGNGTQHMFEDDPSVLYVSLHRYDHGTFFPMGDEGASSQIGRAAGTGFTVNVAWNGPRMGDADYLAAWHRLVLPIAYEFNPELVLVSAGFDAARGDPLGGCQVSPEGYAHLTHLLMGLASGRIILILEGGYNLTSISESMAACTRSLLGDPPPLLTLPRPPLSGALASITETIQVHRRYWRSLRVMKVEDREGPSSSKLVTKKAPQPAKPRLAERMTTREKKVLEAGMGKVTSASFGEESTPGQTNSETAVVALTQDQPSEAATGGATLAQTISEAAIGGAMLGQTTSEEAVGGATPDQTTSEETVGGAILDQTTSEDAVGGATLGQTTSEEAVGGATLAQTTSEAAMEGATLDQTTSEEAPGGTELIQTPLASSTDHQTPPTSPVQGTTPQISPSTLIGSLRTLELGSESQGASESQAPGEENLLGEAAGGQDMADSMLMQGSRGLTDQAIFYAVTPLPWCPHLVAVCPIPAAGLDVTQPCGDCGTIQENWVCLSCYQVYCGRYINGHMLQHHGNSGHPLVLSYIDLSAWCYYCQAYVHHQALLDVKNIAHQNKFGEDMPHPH
Assay: In vitro histone deacetylase assay: enzymatic HDAC6 electrophoretic mobility shift assay
Conditions: 1 nM enzyme, 2 μM peptide substrate RHKK(Ac)-NH2, 25° C., 12 concentrations; read-out: Inhibitory Concentration (IC50) Values against HDAC6, Activity Range

Solved entries:
CC1(C)C[C@@H]1C(=O)N1CCOc2cc(C(=O)NO)ccc2C1 ... 100 to 500 nM
C[C@H]1COc2cc(C(=O)NO)ccc2CN1C(=O)[C@H]1CCOC1 ... ≤ 100 nM
COCC1(C(=O)N2Cc3ccc(C(=O)NO)cc3OC[C@@H]2C)CCOCC1 ... ≤ 100 nM
CC(=O)N1CCCC(C(=O)N2CCOc3cc(C(=O)NO)ccc3C2)C1 (stereo not shown) ... ≤ 100 nM
C[C@H]1COc2cc(C(=O)NO)ccc2CN1C(=O)C1COC1 ... ≤ 100 nM
C[C@H]1COc2cc(C(=O)NO)ccc2CN1C(=O)[C@H]1C[C@H](Oc2ccccc2)C1 (single isomer, unassigned) ... ≤ 100 nM

The value of IC50 measured for the compound "O=C(NO)c1ccc2c(c1)OC[C@H](C(F)(F)F)N(C(=O)C1CCOCC1)C2" turned out to be ≤ 100 nM

# IC50 of "O=C(NO)c1ccc2c(c1)OCCN(C(=O)CN1CCS(=O)(=O)CC1)C2" = > 500 nM

Looking up C[C@H]1COc2cc(C(=O)NO)ccc2CN1C(=O)C1CC(Oc2ccccc2)C1 (single isomer, unassigned) , I see its IC50 listed as ≤ 100 nM

"C[C@H]1COc2cc(C(=O)NO)ccc2CN1C(=O)CCOCC(F)(F)F" has a reported IC50 of ≤ 100 nM

IC50 measured on CC(C)(C)OC(=O)N1CCC2(CC1)CC(C(=O)N1CCOc3cc(C(=O)NO)ccc3C1)c1ccccc12 (stereo not shown) = 100 to 500 nM

Notebook: "C[C@H]1COc2cc(C(=O)NO)ccc2CN1C(=O)C1(F)CCOCC1" , IC50 read as ≤ 100 nM

Entry "CC1(C(=O)N2Cc3ccc(C(=O)NO)cc3OCC2(C)C)CCC1" ; IC50 = > 500 nM

Lab note: measured IC50 of "CC(C)[C@@H]1COc2cc(C(=O)NO)ccc2CN1C(=O)C1(C)CCC1" was > 500 nM

IC50 reported for this compound "CC1(C(=O)N2CCOc3cc(C(=O)NO)ccc3C2)CCCCC1" : ≤ 100 nM

Measured IC50, "O=C(NO)c1ccc2c(c1)OCCN(C(=O)C1(Cc3ccccc3)CC1)C2" : ≤ 100 nM

* * *

Molecular target: Full length human recombinant HDAC6 protein (Homo sapiens)
Sequence (Q9UBN7 1-1215): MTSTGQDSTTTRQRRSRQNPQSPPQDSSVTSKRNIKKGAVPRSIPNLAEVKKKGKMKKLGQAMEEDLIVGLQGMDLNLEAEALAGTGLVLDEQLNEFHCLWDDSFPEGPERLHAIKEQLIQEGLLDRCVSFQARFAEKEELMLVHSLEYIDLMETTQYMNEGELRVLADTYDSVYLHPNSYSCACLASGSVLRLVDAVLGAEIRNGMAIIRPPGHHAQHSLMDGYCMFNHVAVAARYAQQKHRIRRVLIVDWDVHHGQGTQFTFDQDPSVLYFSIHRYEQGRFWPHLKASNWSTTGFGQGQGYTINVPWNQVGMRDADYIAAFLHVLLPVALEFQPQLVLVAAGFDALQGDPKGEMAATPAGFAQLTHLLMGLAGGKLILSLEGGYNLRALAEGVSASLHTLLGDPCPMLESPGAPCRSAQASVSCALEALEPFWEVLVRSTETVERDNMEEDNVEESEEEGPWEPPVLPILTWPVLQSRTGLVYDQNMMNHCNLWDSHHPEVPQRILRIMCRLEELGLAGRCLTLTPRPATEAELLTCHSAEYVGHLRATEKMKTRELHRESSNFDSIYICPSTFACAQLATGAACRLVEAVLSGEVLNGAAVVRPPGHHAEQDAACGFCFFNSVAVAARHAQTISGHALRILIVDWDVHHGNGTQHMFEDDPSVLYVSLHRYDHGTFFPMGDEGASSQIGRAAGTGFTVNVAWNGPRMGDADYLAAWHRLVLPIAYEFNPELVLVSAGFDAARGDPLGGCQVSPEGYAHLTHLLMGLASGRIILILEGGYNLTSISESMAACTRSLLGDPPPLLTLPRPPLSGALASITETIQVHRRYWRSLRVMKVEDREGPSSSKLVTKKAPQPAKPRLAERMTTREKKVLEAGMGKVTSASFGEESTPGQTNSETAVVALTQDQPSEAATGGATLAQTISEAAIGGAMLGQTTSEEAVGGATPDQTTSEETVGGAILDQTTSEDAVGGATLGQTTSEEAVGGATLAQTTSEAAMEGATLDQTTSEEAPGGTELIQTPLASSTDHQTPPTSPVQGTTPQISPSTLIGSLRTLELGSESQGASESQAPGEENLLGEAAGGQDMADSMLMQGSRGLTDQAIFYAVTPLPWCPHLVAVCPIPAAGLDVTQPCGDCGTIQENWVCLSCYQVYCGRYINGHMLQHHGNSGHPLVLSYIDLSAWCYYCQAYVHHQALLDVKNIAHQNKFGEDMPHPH
Assay: In vitro histone deacetylase assay: enzymatic HDAC6 electrophoretic mobility shift assay
Details: 1 nM enzyme, 2 μM peptide substrate RHKK(Ac)-NH2, 25° C., 12 concentrations; read-out: Inhibitory Concentration (IC50) Values against HDAC6, Activity Range
reported_metric: IC50

CC(C)(C)OC(=O)N1CCC2(CCC(C(=O)N3CCOc4cc(C(=O)NO)ccc4C3)C2)CC1 (stereo not shown) ... 100 to 500 nM
O=C(NO)c1ccc2c(c1)OCCN(C(=O)c1ccc(Oc3ccccc3)cc1)C2 ... ≤ 100 nM
O=C(NO)c1ccc2c(c1)OCCN(C(=O)C1CCCC1)C2 ... ≤ 100 nM
CC(C)(C)OC(=O)N1CCC2(CCC(C(=O)N3CCOc4cc(C(=O)NO)ccc4C3)CC2)C1 (stereo not shown) ... ≤ 100 nM
O=C(NO)c1ccc2c(c1)OCCN(C(=O)C1(c3ccc(Cl)cc3)CC1)C2 ... ≤ 100 nM

The value of IC50 recorded for CN(C)C(=O)C1CN(C(=O)C2CCOCC2)Cc2ccc(C(=O)NO)cc2O1 (stereo not shown) when tested on Full length human recombinant HDAC6 protein (Homo sapiens) reads 100 to 500 nM

Reading of IC50 for "C[C@@H]1COc2cc(C(=O)NO)ccc2CN1C(=O)C1(C)CCC1" with Full length human recombinant HDAC6 protein (Homo sapiens): 100 to 500 nM

"COC[C@@H]1CN(C=O)Cc2ccc(C(=O)NO)cc2O1" on Full length human recombinant HDAC6 protein (Homo sapiens) gives IC50 = 100 to 500 nM

// molecule Cc1nnnn1C(C(=O)N1CCOc2cc(C(=O)NO)ccc2C1)c1ccccc1 (stereo not shown) , assay Full length human recombinant HDAC6 protein (Homo sapiens), IC50 value: 100 to 500 nM

The measured IC50 that CC(CC(=O)N1CCOc2cc(C(=O)NO)ccc2C1)c1ccccc1 (stereo not shown) showed for Full length human recombinant HDAC6 protein (Homo sapiens) is 100 to 500 nM
